These data points were gathered from ChEMBL document CHEMBL4602605.

system: Mus musculus; experiment: Analgesic activity in Swiss albino mouse assessed as acetic acid-induced writhing number at 50 mg/kg pretreated for 30 mins followed by acetic acid challenge and measured after 5 to 15 mins (reference value: 30.8 +/- 0.37); type: functional
readoutType: Activity

Take a look at these entries with their results.
molecule | Activity
COc1c(N2CCN(CC(=O)Nc3nc4c([N+](=O)[O-])cccc4s3)C(C)C2)c(F)cc2c(=O)c(C(=O)O)cn(C3CC3)c12 (stereo not given) | 1.63
Cc1ccc2nc(NC(=O)CN3CCN(c4cc5c(cc4F)c(=O)c(C(=O)O)cn5C4CC4)CC3)sc2c1 | 16.2
O=C(CN1CCN(c2cc3c(cc2F)c(=O)c(C(=O)O)cn3C2CC2)CC1)Nc1nc2ccc(Cl)cc2s1 | 13.8
CCn1cc(C(=O)O)c(=O)c2cc(F)c(N3CCN(CC(=O)Nc4nc5c(Cl)ccc(Cl)c5s4)CC3)cc21 | 17.4
CCn1cc(C(=O)O)c(=O)c2cc(F)c(N3CCN(CC(=O)Nc4nc5ccc(Cl)cc5s4)CC3)cc21 | 15.2

For each of the molecules below, note its Activity.
1. COc1c(N2CCN(CC(=O)Nc3nc4c(F)cccc4s3)C(C)C2)c(F)cc2c(=O)c(C(=O)O)cn(C3CC3)c12 (stereo not given)
2. O=C(CN1CCN(c2cc3c(cc2F)c(=O)c(C(=O)O)cn3C2CC2)CC1)Nc1nc2c(Cl)ccc(Cl)c2s1

15
15.6

====

tested on: Escherichia coli; assay: Antimicrobial activity against Escherichia coli ATCC 25922 incubated for 18 to 24 hrs; format: functional
Assignment: determine reported MIC for the given compounds.
One number for each entry, in µg/mL.

Take a look at these entries with their results.
compound | MIC [µg/mL]
CO/N=C1\CCN(c2c(F)cc3c(=O)c(C(=O)O)cn(C4CC4)c3c2OC)CC1NC(=O)[C@H](C)N (stereo partly drawn) | 4
CO/N=C1\CCN(c2c(F)cc3c(=O)c(C(=O)O)cn(C4CC4)c3c2OC)CC1NC(=O)[C@H]1CCCN1 (stereo partly drawn) | 4
CO/N=C1\CCN(c2c(F)cc3c(=O)c(C(=O)O)cn(C4CC4)c3c2OC)CC1NC(=O)CNC(=O)CN (stereo not drawn) | 16
CO/N=C1\CCN(c2c(F)cc3c(=O)c(C(=O)O)cn(C4CC4)c3c2OC)CC1NC(=O)[C@H](N)Cc1ccccc1 (stereo partly drawn) | 16
CO/N=C1\CCN(c2c(F)cc3c(=O)c(C(=O)O)cn(C4CC4)c3c2OC)CC1NC(=O)[C@H](N)CO (stereo partly drawn) | 16
CO/N=C1\CCN(c2c(F)cc3c(=O)c(C(=O)O)cn(C4CC4)c3c2OC)CC1NC(=O)[C@H](N)Cc1ccc(O)cc1 (stereo partly drawn) | 16
CO/N=C1\CCN(c2c(F)cc3c(=O)c(C(=O)O)cn(C4CC4)c3c2OC)CC1NC(=O)[C@H](N)[C@H](C)O (stereo partly drawn) | 16

As a next step, examine the compound that follows.
I am curious: what MIC value has been reported for CO/N=C1\CCN(c2c(F)cc3c(=O)c(C(=O)O)cn(C4CC4)c3c2OC)CC1NC(=O)C(C)NC(=O)C(C)N (stereo not drawn) ? 32

====

test system: Escherichia coli; assay: Antimicrobial activity against Escherichia coli ATCC 25922 incubated for 18 to 24 hrs; type: functional
Assignment: determine reported MIC for the given compounds.

Take a look at these entries with their results.
compound | MIC
CCC(C)[C@H](N)C(=O)NC1CN(c2c(F)cc3c(=O)c(C(=O)O)cn(C4CC4)c3c2OC)CC/C1=N\OC (some centres undefined) | 8 µg/mL
CO/N=C1\CCN(c2c(F)cc3c(=O)c(C(=O)O)cn(C4CC4)c3c2OC)CC1NC(=O)[C@H](N)CC(C)C (some centres undefined) | 4 µg/mL
CO/N=C1\CCN(c2c(F)cc3c(=O)c(C(=O)O)cn(C4CC4)c3c2OC)CC1NC(=O)[C@@H](N)C(C)C (some centres undefined) | 4 µg/mL

As a next step, examine the compound that follows.
I am curious: what MIC value has been reported for CO/N=C1\CCN(c2c(F)cc3c(=O)c(C(=O)O)cn(C4CC4)c3c2OC)CC1NC(=O)CN (centres undefined) ? 4 µg/mL

====

system: Bacillus subtilis; test: Antibacterial activity against Bacillus subtilis NCDC 71 by single disk method; type: functional
Assignment: determine reported MIC for the given compounds.
Give bare numbers, in µg/mL.

Take a look at these entries with their results.
compound | displayUnit | resultNumber
Cc1ccc2nc(NC(=O)CN3CCN(c4cc5c(cc4F)c(=O)c(C(=O)O)cn5C4CC4)CC3)sc2c1 | µg/mL | 35
COc1c(N2CCN(CC(=O)Nc3nc4c(C)cccc4s3)C(C)C2)c(F)cc2c(=O)c(C(=O)O)cn(C3CC3)c12 (centres undefined) | µg/mL | 120
COc1c(N2CCN(CC(=O)Nc3nc4c(F)cccc4s3)C(C)C2)c(F)cc2c(=O)c(C(=O)O)cn(C3CC3)c12 (centres undefined) | µg/mL | 70

As a next step, examine the compound that follows.
Give recorded MIC with Bacillus subtilis for the following compound: O=C(CN1CCN(c2cc3c(cc2F)c(=O)c(C(=O)O)cn3C2CC2)CC1)Nc1nc2ccc(F)cc2s1 40

====

Assignment: determine reported MIC for the given compounds.
test system: Staphylococcus aureus; test: Antimicrobial activity against methicillin-resistant Staphylococcus aureus ATCC 25923 by microdilution method; assay type: functional

Take a look at these entries with their results.
compound | systemName | MIC
CN1CCN(N(Cn2nc3c(F)cc4c(=O)c(C(=O)O)cn(C5CC5)c4n3c2=O)N2CCN(C)CC2)CC1 | Staphylococcus aureus | ≤ 2 µg/mL
CCn1cc(C(=O)O)c(=O)c2cc(F)c(-n3cc(CO[C@H]4O[C@@H](C)[C@H](OC(C)=O)[C@@H](OC(C)=O)[C@H]4OC(C)=O)nn3)c(F)c21 | Staphylococcus aureus | ≤ 16 µg/mL
O=C(O)c1cn(C2CC2)c2c(cc(F)c3nn(CN(N4CCCCC4)N4CCCCC4)c(=O)n32)c1=O | Staphylococcus aureus | ≤ 8 µg/mL
CN(C)N(Cn1nc2c(F)cc3c(=O)c(C(=O)O)cn(C4CC4)c3n2c1=O)N(C)C | Staphylococcus aureus | ≤ 8 µg/mL
O=C(O)c1cn(C2CC2)c2c(cc(F)c3nn(CN(N4CCOCC4)N4CCOCC4)c(=O)n32)c1=O | Staphylococcus aureus | ≤ 2 µg/mL
CCN(CC)N(Cn1nc2c(F)cc3c(=O)c(C(=O)O)cn(C4CC4)c3n2c1=O)N(CC)CC | Staphylococcus aureus | ≤ 32 µg/mL

For each of the compounds below, note its MIC.
1. CC1CNCCN1N(Cn1nc2c(F)cc3c(=O)c(C(=O)O)cn(C4CC4)c3n2c1=O)N1CCNCC1C (stereo not drawn)
2. CCN1CCN(N(Cn2nc3c(F)cc4c(=O)c(C(=O)O)cn(C5CC5)c4n3c2=O)N2CCN(CC)CC2)CC1

1. ≤ 1 µg/mL
2. ≤ 0.5 µg/mL

====

system: Staphylococcus aureus; assay: Antimicrobial activity against Staphylococcus aureus ATCC 25923 incubated for 18 hrs by CLSI-based microbroth dilution method; format: functional; conditions: ATCC 25923, 18 h
Assignment: determine reported log10 MIC for the given compounds.
Short version: log10 scale, MIC, µg/mL.

For each of the compounds below, note its log10 MIC.
1. CN1CCN(c2cc3c(cc2F)c(=O)c(C(=O)O)cn3C2CC2)CC1
2. Cl.Cn1cc(C(=O)O)c(=O)c2cc(F)c(N3CCNCC3)cc21
3. O=C(O)c1cn(C2CC2)c2cc(N3CCCCC3)c(F)cc2c1=O
4. CN(C)c1cc2c(cc1F)c(=O)c(C(=O)O)cn2C1CC1
5. Cl.NCCNc1cc2c(cc1F)c(=O)c(C(=O)O)cn2C1CC1
6. O=C(O)c1cn(C2CC2)c2cc(N3CCOCC3)c(F)cc2c1=O
7. CC(C)n1cc(C(=O)O)c(=O)c2cc(F)c(N3CCNCC3)cc21.Cl

1. -0.60
2. 0.90
3. -0.60
4. 2.10
5. 1.20
6. 2.10
7. 0.90

For each of the compounds below, note its log10 MIC.
1. CCCCn1cc(C(=O)O)c(=O)c2cc(F)c(N3CCNCC3)cc21.Cl
2. O=C(O)c1cn(C2CC2)c2cc(N3CCCCCC3)c(F)cc2c1=O
3. CCCCN(CCCC)c1cc2c(cc1F)c(=O)c(C(=O)O)cn2CC
4. Cl.O=C(O)c1cn(Cc2ccccc2)c2cc(N3CCNCC3)c(F)cc2c1=O

1: 1.20; 2: -0.60; 3: 0.90; 4: 0.30

====

Assignment: determine reported MIC for the given compounds.
test system: Pseudomonas aeruginosa; test: Antibacterial activity against Pseudomonas aeruginosa NCDC 105 by single disk method; type: functional
Give bare numbers, in µg/mL.

Take a look at these entries with their results.
compound | resultNumber
Cc1ccc2nc(NC(=O)CN3CCN(c4cc5c(cc4F)c(=O)c(C(=O)O)cn5C4CC4)CC3)sc2c1 | 45
O=C(CN1CCN(c2cc3c(cc2F)c(=O)c(C(=O)O)cn3C2CC2)CC1)Nc1nc2ccc(Cl)cc2s1 | 15
CCn1cc(C(=O)O)c(=O)c2cc(F)c(N3CCN(CC(=O)Nc4nc5ccc([N+](=O)[O-])cc5s4)CC3)cc21 | 55
CCn1cc(C(=O)O)c(=O)c2cc(F)c(N3CCN(CC(=O)Nc4nc5c(Cl)ccc(Cl)c5s4)CC3)cc21 | 30
CCn1cc(C(=O)O)c(=O)c2cc(F)c(N3CCN(CC(=O)Nc4nc5ccc(Cl)cc5s4)CC3)cc21 | 10

For each of the compounds below, note its MIC.
1. COc1c(N2CCN(CC(=O)Nc3nc4c(C)cccc4s3)C(C)C2)c(F)cc2c(=O)c(C(=O)O)cn(C3CC3)c12 (configuration not stated)
2. CCn1cc(C(=O)O)c(=O)c2cc(F)c(N3CCN(CC(=O)Nc4nc5ccc(F)cc5s4)CC3)cc21

85
40
